The following compounds are shown together with reported IC50 values.
- System: 327498-153-R-J2-PDC complex spheroid growth, % test/control
- Procedure text: Anticancer human tumor 327498-153-R-J2-PDC patient-derived uterine carcinosarcoma cell line growth inhibition [Asc]
- Condition summary: curve of first compound; second compound 3 µM

| Compound | Recorded metric | Measured value |
| --- | --- | --- |
| Cn1ncnc1[C@H]1c2n[nH]c(=O)c3cc(F)cc(c23)N[C@@H]1c1ccc(F)cc1 + CCN1C(C(=O)NC23CCC(C(=O)O)(CC2)CC3)C(c2cccc(Cl)c2F)C2(C(=O)Nc3cc(Cl)ccc32)C12CCCCC2 | IC50 | < 0.316 nM |

Recorded IC50 for Cc1nc(N2CCC3(CC2)COC(C)C3N)c(CO)nc1Sc1ccnc(N)c1Cl (stereo not drawn) + CCN1C(C(=O)NC23CCC(C(=O)O)(CC2)CC3)C(c2cccc(Cl)c2F)C2(C(=O)Nc3cc(Cl)ccc32)C12CCCCC2 on 327498-153-R-J2-PDC complex spheroid growth, % test/control was < 9.49 nM

Given the compound CCN1CCN(Cc2ccc(Nc3ncc(F)c(-c4cc(F)c5nc(C)n(C(C)C)c5c4)n3)nc2)CC1 + CCN1C(C(=O)NC23CCC(C(=O)O)(CC2)CC3)C(c2cccc(Cl)c2F)C2(C(=O)Nc3cc(Cl)ccc32)C12CCCCC2 and test system 327498-153-R-J2-PDC complex spheroid growth, % test/control, the measured IC50 is < 3.16 nM

NC(=O)C(=Cn1cnc(-c2cc(C(F)(F)F)cc(C(F)(F)F)c2)n1)c1cncnc1 + CCN1C(C(=O)NC23CCC(C(=O)O)(CC2)CC3)C(c2cccc(Cl)c2F)C2(C(=O)Nc3cc(Cl)ccc32)C12CCCCC2 on 327498-153-R-J2-PDC complex spheroid growth, % test/control gives IC50 = < 0.949 nM

Assay 327498-153-R-J2-PDC complex spheroid growth, % test/control, sample CNC(C)C(=O)NC1CN(S(=O)(=O)c2cccc(S(=O)(=O)N3CCC4CCC(C(=O)NC(c5ccccc5)c5ccccc5)N4C(=O)C(NC(=O)C(C)NC)C3)c2)CCC2CCC(C(=O)NC(c3ccccc3)c3ccccc3)N2C1=O (stereo not drawn) + CCN1C(C(=O)NC23CCC(C(=O)O)(CC2)CC3)C(c2cccc(Cl)c2F)C2(C(=O)Nc3cc(Cl)ccc32)C12CCCCC2 , IC50 read: < 3.16 nM

Reading of IC50 for O=C(c1ccc(F)c(F)c1Nc1ccc(I)cc1F)N1CC(O)([C@@H]2CCCCN2)C1 + CCN1C(C(=O)NC23CCC(C(=O)O)(CC2)CC3)C(c2cccc(Cl)c2F)C2(C(=O)Nc3cc(Cl)ccc32)C12CCCCC2 with 327498-153-R-J2-PDC complex spheroid growth, % test/control: < 3.16 nM

Lab entry: 327498-153-R-J2-PDC complex spheroid growth, % test/control assay, compound NC1CCC(NC2CC2c2ccccc2)CC1 (stereo not drawn) + CCN1C(C(=O)NC23CCC(C(=O)O)(CC2)CC3)C(c2cccc(Cl)c2F)C2(C(=O)Nc3cc(Cl)ccc32)C12CCCCC2 , IC50 = < 0.316 nM

COc1c(OCCCN2CCOCC2)ccc2c3n(c(=NC(=O)c4cnc(N)nc4)nc12)CCN3 + CCN1C(C(=O)NC23CCC(C(=O)O)(CC2)CC3)C(c2cccc(Cl)c2F)C2(C(=O)Nc3cc(Cl)ccc32)C12CCCCC2 on 327498-153-R-J2-PDC complex spheroid growth, % test/control gives IC50 = < 3.16 nM

----------
Let's look at some compounds and their measured pIC50.
- Test system: 327498-153-R-J2-PDC complex spheroid growth, % test/control
- Procedure text: Anticancer human tumor 327498-153-R-J2-PDC cell line growth inhibition [Asc];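 further: spheroids exposed to compound for 7 days after 3 days of growth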
- Condition summary: curve of first compound; second compound 1 µM
Quick note: pIC50 means taking -log10 of the concentration in moles per liter.

| Compound | Measured value |
| --- | --- |
| CCN1C(C(=O)NC23CCC(C(=O)O)(CC2)CC3)C(c2cccc(Cl)c2F)C2(C(=O)Nc3cc(Cl)ccc32)C12CCCCC2 (stereo not drawn) + CNC(C)C(=O)NC1CN(S(=O)(=O)c2cccc(S(=O)(=O)N3CCC4CCC(C(=O)NC(c5ccccc5)c5ccccc5)N4C(=O)C(NC(=O)C(C)NC)C3)c2)CCC2CCC(C(=O)NC(c3ccccc3)c3ccccc3)N2C1=O | 6.82 |

So the reported pIC50 for COc1c(OCCCN2CCOCC2)ccc2c3n(c(=NC(=O)c4cnc(N)nc4)nc12)CCN3 + Cc1c(S(C)(=O)=O)c(-c2cc(F)cc(N3CCN(c4ccc(NS(=O)(=O)c5ccc(NC(CCN6CCC(C(=O)OCCCP(=O)(O)O)CC6)CSc6ccccc6)c(S(=O)(=O)C(F)(F)F)c5)cc4)CC3)c2)c(-c2ccc(Cl)cc2)n1C(C)C , on 327498-153-R-J2-PDC complex spheroid growth, % test/control, turned out to be 7.10

----------
Each item that follows carries a reported viability, T/C.
- Test system: 327498-153-R-J2-PDC complex spheroid growth, % test/control
- Procedure text: Anticancer human tumor 327498-153-R-J2-PDC cell line growth inhibition [Asc];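 further: spheroids exposed to compound for 7 days after 3 days of growth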;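 on viability, T/C: 100% = DMSO vehicle control wells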
- Condition summary: second compound 0.03 µM; first compound 0.316 µM; stronger effect = lower value
Answer in %, number only, no unit symbol.

| Compound | Recorded metric | Measured value |
| --- | --- | --- |
| CNC(C)C(=O)NC1CN(S(=O)(=O)c2cccc(S(=O)(=O)N3CCC4CCC(C(=O)NC(c5ccccc5)c5ccccc5)N4C(=O)C(NC(=O)C(C)NC)C3)c2)CCC2CCC(C(=O)NC(c3ccccc3)c3ccccc3)N2C1=O (centres undefined) + CCN1C(C(=O)NC23CCC(C(=O)O)(CC2)CC3)C(c2cccc(Cl)c2F)C2(C(=O)Nc3cc(Cl)ccc32)C12CCCCC2 | viability, T/C | 89.2 |

Notebook: O=C(c1ccc(F)c(F)c1Nc1ccc(I)cc1F)N1CC(O)([C@@H]2CCCCN2)C1 + CCN1C(C(=O)NC23CCC(C(=O)O)(CC2)CC3)C(c2cccc(Cl)c2F)C2(C(=O)Nc3cc(Cl)ccc32)C12CCCCC2 , viability, T/C read as 50.3

Record O=C(c1cc(Cc2n[nH]c(=O)c3ccccc23)ccc1F)N1CCN(C(=O)C2CC2)CC1 + CCN1C(C(=O)NC23CCC(C(=O)O)(CC2)CC3)C(c2cccc(Cl)c2F)C2(C(=O)Nc3cc(Cl)ccc32)C12CCCCC2 , field viability, T/C: 80.9

Given item COc1c(OCCCN2CCOCC2)ccc2c3n(c(=NC(=O)c4cnc(N)nc4)nc12)CCN3 + CCN1C(C(=O)NC23CCC(C(=O)O)(CC2)CC3)C(c2cccc(Cl)c2F)C2(C(=O)Nc3cc(Cl)ccc32)C12CCCCC2 , the value recorded as its viability, T/C is 21.1

----------
- Tested on: 327498-153-R-J2-PDC complex spheroid growth, % test/control
- Procedure text: Anticancer human tumor 327498-153-R-J2-PDC cell line growth inhibition [Asc];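 further: spheroids exposed to compound for 7 days after 3 days of growth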
- Condition summary: curve of first compound; second compound 0.0949 µM
pIC50: −log10 of the molar value.
Recorded metric: pIC50

| Compound | pIC50 |
| --- | --- |
| CCN1CCN(Cc2ccc(Nc3ncc(F)c(-c4cc(F)c5nc(C)n(C(C)C)c5c4)n3)nc2)CC1 + CCN1C(C(=O)NC23CCC(C(=O)O)(CC2)CC3)C(c2cccc(Cl)c2F)C2(C(=O)Nc3cc(Cl)ccc32)C12CCCCC2 | 7.54 |

[1] Cn1ncnc1[C@H]1c2n[nH]c(=O)c3cc(F)cc(c23)N[C@@H]1c1ccc(F)cc1 + CCN1C(C(=O)NC23CCC(C(=O)O)(CC2)CC3)C(c2cccc(Cl)c2F)C2(C(=O)Nc3cc(Cl)ccc32)C12CCCCC2
[2] Cc1nc(N2CCC3(CC2)COC(C)C3N)c(CO)nc1Sc1ccnc(N)c1Cl (centres undefined) + CCN1C(C(=O)NC23CCC(C(=O)O)(CC2)CC3)C(c2cccc(Cl)c2F)C2(C(=O)Nc3cc(Cl)ccc32)C12CCCCC2
**Q:** Hey, between 1 and 2 which has a smaller measured pIC50? State your choice using its label.
**A:** 2
(2: 7.32, 1: 8.58)

[I] NC(=O)C(=Cn1cnc(-c2cc(C(F)(F)F)cc(C(F)(F)F)c2)n1)c1cncnc1 + CCN1C(C(=O)NC23CCC(C(=O)O)(CC2)CC3)C(c2cccc(Cl)c2F)C2(C(=O)Nc3cc(Cl)ccc32)C12CCCCC2
[II] O=C(c1cc(Cc2n[nH]c(=O)c3ccccc23)ccc1F)N1CCN(C(=O)C2CC2)CC1 + CCN1C(C(=O)NC23CCC(C(=O)O)(CC2)CC3)C(c2cccc(Cl)c2F)C2(C(=O)Nc3cc(Cl)ccc32)C12CCCCC2
**Q:** From the recorded data, which exceeds the other in pIC50: I or II ? // respond with label for picked entry
**A:** I
(I: 8.10, II: 6.23)
